Recorded values, source paper PMC6041282.

Tested on: planktonic P. aeruginosa
EXPERIMENTAL PARAMETERS: planktonic, 24 h
Where no end group is shown, it is not given here.
For each entry below, report its MIC value.

{"columns": ["ITEM SEQUENCE", "MIC"],
 "data": [
  ["KRFHSVGSLIQRHQQMIRDKSEATRHGIRIITRPKLLLAS [eCATH-3]", "> 40 µM"],
  ["KRRHWFPLSFQEFLEQLRRFRDQLPFP [eCATH-2]", "> 40 µM"],
  ["RRRPRPPYLPRPRPPPFFPPRLPPRIPPGFPPRFPPRFP [PR-39]", "5 to 10 µM"],
  ["RIIDLLWRVRRPQKPKFVTVWVR [PMAP-23]", "40 µM"],
  ["RFGRFLRKIRRFRPKVTITIQGSARF [cCATH-2]", "5 to 10 µM"],
  ["RLKELITTGGQKIGEKIRRIGQRIKDFFKNLQPREEKS [K9CATH]", "40 µM"]
]}

What MIC appears in the records for this sequence with planktonic P. aeruginosa? KRFGRLAKSFLRMRILLPRRKILLAS [eCATH-1]
2.5 to 5 µM
